Experiment: self-splicing fitness, log relative to wild type (ln ratio); higher = more splicing; Tetrahymena group I intron in knt gene, E. coli kanamycin selection, DiMSum; sequences stand for … in CUCUCU…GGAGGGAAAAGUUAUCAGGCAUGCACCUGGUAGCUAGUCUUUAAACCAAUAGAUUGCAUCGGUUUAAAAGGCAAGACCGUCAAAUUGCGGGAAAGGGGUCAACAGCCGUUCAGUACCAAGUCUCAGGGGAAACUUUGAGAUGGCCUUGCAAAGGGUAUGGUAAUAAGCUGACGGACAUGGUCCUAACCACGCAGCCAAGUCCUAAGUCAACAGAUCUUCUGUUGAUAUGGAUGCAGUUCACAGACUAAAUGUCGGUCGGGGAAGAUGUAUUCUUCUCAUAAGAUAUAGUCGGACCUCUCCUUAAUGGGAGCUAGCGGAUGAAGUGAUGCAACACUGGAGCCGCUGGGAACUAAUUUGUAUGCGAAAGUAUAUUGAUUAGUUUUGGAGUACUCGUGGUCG;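 also: selection with 25 µg/mL kanamycin versus none on LB agar overnight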
Settings: 37 °C
MEASURED PROPERTY: self-splicing fitness (ln)

{"columns": ["INPUT SEQUENCE", "RESULT"],
 "data": [
  ["UAAAAGCAAUAUUACGCUCA", 0.128],
  ["GCACAGCAAUAUUACGGAUA", -1.38],
  ["GUACAGCAAUAUUACGAAAC", -0.531],
  ["CAGUAGCAAUAUUACGGGGA", -2.23],
  ["GAGCAGCAAUAUUACGGACG", -1.72],
  ["CCUGAGCAAUAUUACGACCA", -2.06],
  ["AUAAAGCAAUAUUACGAAUC", -1.31],
  ["CCUCAGCAAUAUUACGAUUG", -0.558],
  ["AAGGAGCAAUAUUACGGAAG", -1.63],
  ["GAUGAGCAAUAUUACGCAAG", -1.51],
  ["UUGAAGCAAUAUUACGACAG", 0.232],
  ["UAGCAGCAAUAUUACGGCGG", -0.353],
  ["GGGAAGCAAUAUUACGCGUC", -2.86],
  ["AGACAGCAAUAUUACGGUCG", -0.102],
  ["AAAUAGCAAUAUUACGACUC", -0.335],
  ["UCUGAGCAAUAUUACGUGAU", -1.42],
  ["GUAAAGCAAUAUUACGAGCU", -0.306],
  ["UACAAGCAAUAUUACGGAGG", -2.03],
  ["AAAGAGCAAUAUUACGUUGC", -1.93],
  ["GAGCAGCAAUAUUACGUCAA", -2.12],
  ["UGAAAGCAAUAUUACGCAGU", -1.3],
  ["UCCAAGCAAUAUUACGUGAG", -0.996],
  ["GAUCAGCAAUAUUACGGACA", 0.127],
  ["ACACAGCAAUAUUACGGCUG", -1.42],
  ["UCUAAGCAAUAUUACGUGGC", -3.11],
  ["GGAUAGCAAUAUUACGUCAU", -0.395],
  ["UCCUAGCAAUAUUACGGUUG", -1.81],
  ["UACGAGCAAUAUUACGCCCA", -1.02],
  ["UGUCAGCAAUAUUACGUCUG", -0.104],
  ["GUACAGCAAUAUUACGGGUC", -2.79],
  ["AUGAAGCAAUAUUACGGCAC", 0.222],
  ["UCGAAGCAAUAUUACGCACA", -0.472],
  ["ACUUAGCAAUAUUACGCCGA", -1.35],
  ["CCCGAGCAAUAUUACGUGUC", -2.8],
  ["AAGCAGCAAUAUUACGUGAU", -1.49],
  ["CUGGAGCAAUAUUACGUUAG", -1.51],
  ["UCGAAGCAAUAUUACGACGG", -0.892],
  ["UGAAAGCAAUAUUACGAACG", 0.684],
  ["CGUAAGCAAUAUUACGCCAA", -1.91],
  ["AUGUAGCAAUAUUACGGGGC", -2.87],
  ["UAUAAGCAAUAUUACGAUAU", -1.96],
  ["AGCAAGCAAUAUUACGGCAU", -0.204],
  ["UUCCAGCAAUAUUACGACAU", -1.61],
  ["UCCCAGCAAUAUUACGCGUG", -2.34],
  ["ACUGAGCAAUAUUACGGUUC", -2.08],
  ["GGCAAGCAAUAUUACGUGGU", -1.57],
  ["GUCUAGCAAUAUUACGCAGU", 0.0079],
  ["GCCCAGCAAUAUUACGCUAA", -0.549],
  ["ACCGAGCAAUAUUACGAUUU", -0.954],
  ["ACGAAGCAAUAUUACGCAAC", -2.38],
  ["CGAUAGCAAUAUUACGGUGA", -1.94],
  ["UGCAAGCAAUAUUACGGAUC", -2.38],
  ["CCACAGCAAUAUUACGUUGA", -3.31],
  ["CGGAAGCAAUAUUACGCGUA", -2.47],
  ["UGAGAGCAAUAUUACGUCGA", -3.1],
  ["GGAAAGCAAUAUUACGUAUG", -2.04],
  ["AAAUAGCAAUAUUACGUACG", -1.16],
  ["CCUAAGCAAUAUUACGUACA", -2.9],
  ["GCUCAGCAAUAUUACGAAUC", -0.385],
  ["GCCCAGCAAUAUUACGUAUC", -1.18],
  ["CUACAGCAAUAUUACGGUCU", -2.13],
  ["GAGGAGCAAUAUUACGUGGU", -2.77]
]}

* * *

Experiment: self-splicing fitness, log relative to wild type (ln ratio); higher = more splicing; Tetrahymena group I intron in knt gene, E. coli kanamycin selection, DiMSum; sequences stand for … in CUCUCU…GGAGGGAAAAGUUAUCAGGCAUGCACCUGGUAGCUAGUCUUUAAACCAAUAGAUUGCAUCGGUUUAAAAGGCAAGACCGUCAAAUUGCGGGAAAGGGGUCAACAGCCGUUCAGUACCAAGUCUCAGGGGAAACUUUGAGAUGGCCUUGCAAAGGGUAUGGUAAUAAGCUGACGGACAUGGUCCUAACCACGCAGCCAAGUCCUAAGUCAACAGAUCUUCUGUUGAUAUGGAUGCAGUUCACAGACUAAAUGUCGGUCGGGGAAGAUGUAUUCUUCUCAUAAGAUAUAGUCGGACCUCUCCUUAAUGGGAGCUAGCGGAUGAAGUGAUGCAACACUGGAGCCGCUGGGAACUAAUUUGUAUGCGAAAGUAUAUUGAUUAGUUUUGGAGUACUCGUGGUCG
Settings: 30 °C

{"columns": ["INPUT SEQUENCE", "self-splicing fitness (ln)"],
 "data": [
  ["AAGAAGCAAUAUUACGCCCG", -0.579],
  ["GUAGAGCAAUAUUACGCGCC", -3.54],
  ["CCUGAGCAAUAUUACGCAAC", -2.76],
  ["UUAUAGCAAUAUUACGUUUC", -4.48],
  ["UAGCAGCAAUAUUACGUUCU", -1.45],
  ["CAUAAGCAAUAUUACGUUGU", -3.55],
  ["GUGGAGCAAUAUUACGGAGU", -3.56],
  ["GCCCAGCAAUAUUACGCAGC", -1.83]
]}

* * *

Test: self-splicing fitness, log relative to wild type (ln ratio); higher = more splicing; Tetrahymena group I intron in knt gene, E. coli kanamycin selection, DiMSum; sequences stand for … in CUCUCU…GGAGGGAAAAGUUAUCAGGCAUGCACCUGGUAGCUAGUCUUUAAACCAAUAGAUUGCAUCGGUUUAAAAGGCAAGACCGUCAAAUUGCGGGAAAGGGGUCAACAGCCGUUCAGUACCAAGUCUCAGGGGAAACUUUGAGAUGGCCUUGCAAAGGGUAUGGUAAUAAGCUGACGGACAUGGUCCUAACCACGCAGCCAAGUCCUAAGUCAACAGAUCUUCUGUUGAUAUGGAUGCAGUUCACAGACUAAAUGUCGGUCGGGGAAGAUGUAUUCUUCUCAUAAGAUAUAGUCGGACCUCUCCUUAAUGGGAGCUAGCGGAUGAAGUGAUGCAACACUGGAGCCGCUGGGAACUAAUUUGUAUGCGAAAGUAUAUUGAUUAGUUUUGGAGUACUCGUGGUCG
Settings: 30 °C
Each record here notes measured self-splicing fitness (ln).

{"columns": ["INPUT SEQUENCE", "self-splicing fitness (ln)"],
 "data": [
  ["AUUUAGCAAUAUUACGGUCA", -0.961],
  ["AAACAGCAAUAUUACGACAA", -0.939],
  ["CCUUAGCAAUAUUACGCCUA", -2.69],
  ["AAGCAGCAAUAUUACGAAGG", -2.99],
  ["AAAAAGCAAUAUUACGUAAU", -1.4],
  ["UAUUAGCAAUAUUACGUACC", -3.37]
]}
